# Tested target: Human PD-L1/PD-1 (Homo sapiens)
# Construct: made in house; host or cells: HEK293T
# Sequence (Q9NZQ7 with tags, fused parts or gaps): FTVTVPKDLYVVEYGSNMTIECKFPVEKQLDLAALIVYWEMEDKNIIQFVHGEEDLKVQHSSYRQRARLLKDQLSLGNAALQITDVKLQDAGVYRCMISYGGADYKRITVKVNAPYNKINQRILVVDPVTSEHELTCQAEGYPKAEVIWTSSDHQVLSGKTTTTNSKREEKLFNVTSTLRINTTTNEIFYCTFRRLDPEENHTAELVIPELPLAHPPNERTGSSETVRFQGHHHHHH
# Experimental protocol: HTRF PD-1-Ig/PD-L1-His binding assay (human PD-L1)
# Measurement conditions: cluster symbol; read-out: HTRF IC50 cluster
pIC50: −log10 of the molar value. Positions of bridges follow the written chain, without caps; N, C: chain ends. Non-standard residues stand in square brackets, D forms with d. Residues, ends and D or L forms follow the SMILES beside them. 2Nal = N[C@@H](Cc1ccc2ccccc2c1)C(=O)O; Hyp = O=C(O)[C@@H]1C[C@@H](O)CN1; NMeF = CN[C@@H](Cc1ccccc1)C(=O)O; NMeNle = CCCC[C@H](NC)C(=O)O; NMeA = CN[C@@H](C)C(=O)O; Sar = CNCC(=O)O
Metric: pIC50

CCCC[C@H]1C(=O)N(C)[C@@H](CCCC)C(=O)N[C@@H](CO)C(=O)N[C@H](C(=O)NCC(N)=O)CSCC(=O)N[C@@H](Cc2ccc(O)cc2)C(=O)N(C)[C@@H](C)C(=O)N[C@@H](CC(N)=O)C(=O)N2CCC[C@H]2C(=O)N[C@@H](CO)C(=O)N[C@@H](CCC(N)=O)C(=O)N2C[C@H](O)C[C@H]2C(=O)N[C@@H](Cc2c[nH]c3ccccc23)C(=O)N[C@@H](CO)C(=O)N[C@@H](Cc2c[nH]c3ccccc23)C(=O)N1C [Example 5128] ({CH2CO}-Y[NMeA]NPSQ[Hyp]WSW[NMeNle][NMeNle]SCG-NH2; thioether N-14): 8.17 to 9.41

Q: Write down the reported pIC50 of CCCC[C@H]1C(=O)N(C)CC(=O)N[C@@H](CC(=O)O)C(=O)N[C@@H](C(C)C)C(=O)N(C)[C@@H](Cc2ccccc2)C(=O)N[C@@H](Cc2ccc(O)cc2)C(=O)N(C)CC(=O)N[C@@H](Cc2c[nH]c3ccccc23)C(=O)N[C@@H](Cc2ccc3ccccc3c2)C(=O)N[C@@H](CC(C)C)C(=O)N[C@H](C(=O)NCC(N)=O)CSCC(=O)N[C@@H](Cc2ccccc2)C(=O)N(C)[C@@H](Cc2ccccc2)C(=O)N1C [Example 3538] ({CH2CO}-F[NMeF][NMeNle][Sar]DV[NMeF]Y[Sar]W[2Nal]LCG-NH2; thioether N-13) , test system: Human PD-L1/PD-1 (Homo sapiens).
Ans: < 7.52
